The following compounds are listed with their measured residual activity values.
# tgt: PRKD1 (human)
# measurement_protocol: radiometric filter-binding kinase assay, Kinase HotSpot
# measurement_conditions: compound 0.5 µM; ATP 10 µM

compound_structure	unit_abbrev	residual activity
COc1cc2c(Nc3ccc(Br)cc3F)ncnc2cc1OCC1CCN(C)CC1	%	99.3
O=c1[nH]c2ccccc2n1C1CCN(Cc2ccc(-c3nc4cc5[nH]cnc5cc4nc3-c3ccccc3)cc2)CC1	%	94.7
CCc1nc(-c2ccc(OC)cc2)[nH]c1-c1ccncc1	%	100
CCCCc1c(-c2ccc(O)cc2)[nH]c2nccnc12	%	77.7

----------
# residual activity per entry
# tgt: MAP3K2 (human)
# measurement_protocol: radiometric filter-binding kinase assay, Kinase HotSpot
# measurement_conditions: compound 0.5 µM; ATP 10 µM

compound_structure	residual activity / %
CCc1nc(-c2ccc(OC)cc2)[nH]c1-c1ccncc1	98.2
COc1cc2ncnc(Nc3ccc(O)c(Br)c3)c2cc1OC	92.4
N#CCCc1ccc2c(c1)-c1[nH]c3ccc([N+](=O)[O-])cc3c1CC(=O)N2	61.5
Nc1ncnc2c1cnn2-c1ccccc1	89.5
O=c1[nH]c2ccccc2n1C1CCN(Cc2ccc(-c3nc4cc5[nH]cnc5cc4nc3-c3ccccc3)cc2)CC1	92.4
COc1cc2c(Nc3ccc(Br)cc3F)ncnc2cc1OCC1CCN(C)CC1	108
N#C/C(=C1/Nc2ccccc2S1)c1ccnc(NCCc2cccnc2)n1	98.1
CCOc1cc2ncnc(Nc3cccc(Br)c3)c2cc1OCC	102
O=C1NC(=O)c2cc(Nc3ccc(F)cc3)c(Nc3ccc(F)cc3)cc21	94.8
O=c1c2ccccc2[nH]c(=S)n1CCN1CCC(=C(c2ccc(F)cc2)c2ccc(F)cc2)CC1	99.6

The reported measurements were obtained from the kinase profiling compilation of Christmann-Franck et al. (2016).
